Values from PubChem BioAssay (NCI)

# Tested on: PC-3 prostate
# MEASUREMENT_DESCRIPTION: NCI-60 one-dose screen, 48 h (100 = growth as untreated, 0 = no growth, -100 = all killed)
# SETUP_CONDITIONS: 10 µM unless noted
Compounds without any hit were thinned out: in the full panel of roughly 83,000, 20% have a hit.
Binned growth; ranges: class 1 (below 30%), class 2 (30% to below 90%), class 3 (90% or more)

COMPOUND: CSc1ccccc1C#C/C=C\C#Cc1ccccc1N1CCCCC1=O
CLASS_ASSIGNMENT: class 2

COMPOUND: CNC(=O)c1cc(Oc2ccc3c(c2)sc2nc(-c4ccc(Cl)cc4)cn23)ccn1
CLASS_ASSIGNMENT: class 2

COMPOUND: C=CCOc1ccc(/C(O)=C2\C(=O)C(=O)N(c3nccs3)C2c2ccccc2F)cc1 (stereo not given)
CLASS_ASSIGNMENT: class 3

COMPOUND: O=C(c1c[nH]c2ccccc12)C(Sc1nc2ccccc2c(=O)[nH]1)c1ccccc1 (stereo not given)
CLASS_ASSIGNMENT: class 3

COMPOUND: CC(=O)Nc1ccc(S(=O)(=O)N2C(=O)CCC2C(=O)Nc2ccccc2)cc1 (stereo not given)
CLASS_ASSIGNMENT: class 1

COMPOUND: Nc1c(C(=O)c2ccc(F)cc2)sc2nc3c(cc12)CCCC3
CLASS_ASSIGNMENT: class 2

COMPOUND: NC(=O)NNC(=O)c1ccccc1
CLASS_ASSIGNMENT: class 3

COMPOUND: COc1cc(C2C=C(C)N=C3SC=C(C)N32)cc(OC)c1OC (stereo not given)
CLASS_ASSIGNMENT: class 1

COMPOUND: CC1=C(C#N)C(C)(C)C(C#N)=C(C)N1
CLASS_ASSIGNMENT: class 2

COMPOUND: COc1ccc(-c2nc(-c3nc4ccc(F)cc4[nH]3)cc3c2[nH]c2ccccc23)cc1
CLASS_ASSIGNMENT: class 1

COMPOUND: O=C(O)c1cn(C2CC2)c2cc(N3CCN(S(=O)(=O)c4ccc(Cl)c(Cl)c4)CC3)c(F)cc2c1=O
CLASS_ASSIGNMENT: class 1

COMPOUND: COc1cccc2cc(-c3cc4ccccc4[nH]3)/c(=N/C(=S)Nc3ccccc3)oc12
CLASS_ASSIGNMENT: class 2

COMPOUND: Cc1ccc(S(=O)(=O)N2CCC(C(=O)Nc3ccc(F)cc3F)CC2)cc1
CLASS_ASSIGNMENT: class 3

COMPOUND: O=c1[nH]c(CN2CCN(c3ccccc3F)CC2)nc2sc3c(c12)CCC3
CLASS_ASSIGNMENT: class 3

COMPOUND: CC(C)(C)OC(=O)N1C/C(=C\c2cccs2)C(=O)/C(=C/c2cccs2)C1
CLASS_ASSIGNMENT: class 2

COMPOUND: CCn1cc(C2NC(=O)c3cc(F)ccc3N2)c2cccc(Cl)c21 (stereo not given)
CLASS_ASSIGNMENT: class 1

COMPOUND: Nc1nc(Cl)c2c(ncn2Cc2ccc(CCl)cc2)n1
CLASS_ASSIGNMENT: class 2

COMPOUND: CCC(c1ccc(OC)cc1)C(CC)c1ccc(O)c(CN2CCCC2)c1 (stereo not given)
CLASS_ASSIGNMENT: class 1

COMPOUND: COc1cc(-c2csc(NC(=O)c3cc(C(F)(F)F)cc(C(F)(F)F)c3)n2)cc(OC)c1OC
CLASS_ASSIGNMENT: class 1

COMPOUND: Clc1ccc([I+]c2ccc(Cl)cc2Cl)c(Cl)c1
CLASS_ASSIGNMENT: class 1

COMPOUND: Cc1ccnc2nc(C(=O)OCC(=O)Nc3ccc(-c4ccccc4)cc3)nn12
CLASS_ASSIGNMENT: class 3

COMPOUND: O=C(NCCc1c[nH]c2ccccc12)C1Cc2ccccc2CN1C(=O)c1ccco1 (stereo not given)
CLASS_ASSIGNMENT: class 3

COMPOUND: COc1ccc(NC(=O)c2cc3ccccc3nc2Nc2cc(OC)c(OC)c(OC)c2)cc1
CLASS_ASSIGNMENT: class 2

COMPOUND: O=S=Nc1ccc([N+](=O)[O-])cc1
CLASS_ASSIGNMENT: class 3

COMPOUND: COc1cc(C(=O)OCCCCCCCCCCC[P+](c2ccccc2)(c2ccccc2)c2ccccc2)ccc1O
CLASS_ASSIGNMENT: class 1

COMPOUND: CCCCCCOc1ccc(C2(Cl)c3ccccc3N(C)c3ccccc32)cc1
CLASS_ASSIGNMENT: class 1

COMPOUND: CCN1C(=O)/C(=c2\sc3n(c2=O)C2C(NN=3)N(CC)C(=S)N2CC)c2ccccc21 (stereo not given)
CLASS_ASSIGNMENT: class 3

COMPOUND: O=c1cc(C2NCCc3c2[nH]c2ccccc32)c2c(ccc3ccccc32)o1 (stereo not given)
CLASS_ASSIGNMENT: class 2

COMPOUND: O=S(=O)(c1ccccc1)n1ccc(-c2ccc3c(c2)CCO3)n1
CLASS_ASSIGNMENT: class 2

* * *

# Tested on: IGROV1 ovarian
# MEASUREMENT_DESCRIPTION: NCI-60 one-dose screen, 48 h
# SETUP_CONDITIONS: 10 µM unless noted
# Experimental: Growth inhibition of the IGROV1 human tumor cell line is measured as a screen for anti-cancer activity. Cells are grown in 96 well plates and exposed to the test compound for 48 hours. Compounds are tested at a single concentration, which is 10^-5 M for most compounds. The reported endpoint is percent growth (GI% or GIPRCNT), where numbers from 0 - 100% represent growth inhibition, and numbers from -100% - 0 represent cell death. For example, a value of 40 represents 60% growth inhibition. […]
This is part of a sample that, as a whole, favours compounds with a hit. Of some 83,000 tested, about 20% had one in any assay. Active and inactive are the calls of the source. How the source made its calls: active means growth percent below 10; inactive means the rest.
Outcomes: Yes (active), No (inactive)

SMILES_INPUT: Cc1cccc(NC(=O)c2sc3nc4c(cc3c2N)CCCC4)c1
MEASURED_ON: IGROV1 ovarian
CLASS_ASSIGNMENT: No
//
SMILES_INPUT: O=C1CCCCN1CCCCC#Cc1ccccc1C#Cc1ccccn1
MEASURED_ON: IGROV1 ovarian
CLASS_ASSIGNMENT: Yes
//
SMILES_INPUT: COC(=O)CCCCCN=Cc1c(O)c(O)c(C(C)C)c2cc(C)c(-c3c(C)cc4c(C(C)C)c(O)c(O)c(C=NCCCCCC(=O)OC)c4c3O)c(O)c12
MEASURED_ON: IGROV1 ovarian
CLASS_ASSIGNMENT: No

* * *

// values below are reported growth
# System: MDA-MB-231 breast
# MEASUREMENT_DESCRIPTION: NCI-60 one-dose screen, 48 h (100 = growth as untreated, 0 = no growth, -100 = all killed)
# SETUP_CONDITIONS: 10 µM unless noted
The panel holds about 83,000 compounds, 20% with a hit somewhere; the sample as a whole holds those more often.

COMPOUND: Nc1ccccc1C#C/C=C\C#Cc1cccc(O)c1
growth, %: 39.7

COMPOUND: O=S(=O)(NCCCNc1nccc(-c2c(-c3ccccc3)nc3sccn23)n1)c1ccc(F)cc1
growth, %: 58.4

COMPOUND: CCC1CCc2nc3sc(C(=O)Nc4cccc(C)c4)c(N)c3cc2C1 (stereo not drawn)
growth, %: 79.8

COMPOUND: COc1ccc2c(c1)NC(=O)CN2c1nc(C)nc2ccccc12
growth, %: 11.6

COMPOUND: Nc1nc(-c2cc3ccccc3o2)cc(=O)c(=O)[nH]1
growth, %: 98.3

COMPOUND: Nc1ccc(S(=O)(=O)c2ccc(Cl)cc2)cc1
growth, %: 92.3

COMPOUND: O=C1c2ccccc2C(=O)c2c(N=Nc3sc(=O)[nH]c3S)cccc21
growth, %: 97.1

COMPOUND: COc1ccc(S(=O)(=O)N2CCN(c3cc4c(cc3F)c(=O)c(C(=O)O)cn4C3CC3)CC2)c(OC)c1
growth, %: 101

COMPOUND: COC1=CC(c2ccc[nH]2)=N/C1=C\c1[nH]c(C)c(C(=O)CCCCC(=O)NCc2ccccc2)c1C
growth, %: -30.5

COMPOUND: CCCCCCCN(CCCCCCC)C(=N)c1ccc(OC)c2ccccc12
growth, %: -77.2

COMPOUND: NCCSC(c1ccccc1)(c1ccccc1)c1ccccc1
growth, %: -24.2

COMPOUND: NC(=O)c1cccc(N2Cc3ccccc3OC3=C2C(=O)c2c(O)ccc(O)c2C3=O)c1
growth, %: -81.9

COMPOUND: O=C(Cc1c(F)cccc1Cl)Nc1ccc(S(=O)(=O)Nc2ncccn2)cc1
growth, %: 109

* * *

# Tested on: NCI-H23 lung
# MEASUREMENT_DESCRIPTION: NCI-60 one-dose screen, 48 h (100 = growth as untreated, 0 = no growth, -100 = all killed)
# SETUP_CONDITIONS: 10 µM unless noted
This is part of a sample that, as a whole, favours compounds with a hit. Of some 83,000 tested, about 20% had one in any assay.
RECORDED_METRIC: growth (%)

COMPOUND: CC(=O)OCC1OC(OCC2OC(OC(C)=O)C(OC(C)=O)C(OC(C)=O)C2OC(C)=O)C(OC(C)=O)C(OC(C)=O)C1OC(C)=O (stereo not given)
RECORDED_METRIC: growth
DATA_VALUE: 103

COMPOUND: O=C1Nc2ccc(Br)cc2C1=N/C=c1\[nH]c(=O)/c(=C/c2ccc(Cl)cc2)s1
RECORDED_METRIC: growth
DATA_VALUE: 97.8

COMPOUND: COc1ccc(/C=C/C(=O)c2ccc(B(O)O)cc2)cc1O
RECORDED_METRIC: growth
DATA_VALUE: 88

COMPOUND: COc1ncc(-c2ccc3ncnc(Nc4cccc(Cl)c4)c3c2)cc1NS(=O)(=O)C1CC1
RECORDED_METRIC: growth
DATA_VALUE: 54.2

COMPOUND: COc1ccc(/C=C(\C#N)c2ccc([N+](=O)[O-])cc2)c2ccccc12
RECORDED_METRIC: growth
DATA_VALUE: 65.3
